Data origin: ChEMBL document CHEMBL4699653

# target_or_test_system: UniProt P39900
# Sequence (P39900 whole entry): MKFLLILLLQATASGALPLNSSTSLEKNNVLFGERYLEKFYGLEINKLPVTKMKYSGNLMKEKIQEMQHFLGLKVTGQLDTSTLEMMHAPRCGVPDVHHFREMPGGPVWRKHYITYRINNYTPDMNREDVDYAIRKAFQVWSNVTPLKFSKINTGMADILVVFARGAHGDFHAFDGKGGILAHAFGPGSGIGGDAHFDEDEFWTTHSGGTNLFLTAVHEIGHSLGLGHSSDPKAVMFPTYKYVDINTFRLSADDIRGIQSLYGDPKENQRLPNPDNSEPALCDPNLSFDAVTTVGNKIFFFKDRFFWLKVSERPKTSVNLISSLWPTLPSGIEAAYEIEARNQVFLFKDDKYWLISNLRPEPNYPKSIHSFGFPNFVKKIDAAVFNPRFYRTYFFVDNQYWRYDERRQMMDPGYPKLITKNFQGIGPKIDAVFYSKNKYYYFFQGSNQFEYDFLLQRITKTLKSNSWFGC
# measurement_description: Inhibition of human recombinant MMP12 using Mca-Lys-Pro-Leu-Gly-Leu-Dpa-Ala-Arg-NH2 substrate by spectrophotometry
parameter: Ki (nM)
Numbers only, in nM.

Which Ki value is on record for "CC(C)C[C@H]1C(=O)N[C@H](C(=O)N[C@@H](CCC(=O)O)C(=O)O)Cc2ccc(cc2)OCCC[C@@H]1C(=O)NO" ?
1.2

Give measured Ki for every item shown.
1. CC(C)C[C@H](CC(=O)NO)C(=O)N[C@@H](Cc1ccccc1)C(=O)N[C@@H](CCC(=O)O)C(=O)NCCNC(=O)c1ccc(NN)nc1
2. CC(C)C[C@H]1C(=O)N[C@H](C(=O)O)Cc2ccc(cc2)OCCC[C@@H]1C(=O)NO
3. CC(C)C[C@H](CC(=O)NO)C(=O)N[C@@H](Cc1ccc(OCCNC(=O)c2ccc(NN)nc2)cc1)C(=O)O
4. CC(C)C[C@H](CC(=O)NO)C(=O)N[C@@H](Cc1ccccc1)C(=O)O

[7.5, 1.1, 8.9, 11.8]

###

# target_or_test_system: 72 kDa type IV collagenase (Homo sapiens)
# Sequence (P08253 whole entry): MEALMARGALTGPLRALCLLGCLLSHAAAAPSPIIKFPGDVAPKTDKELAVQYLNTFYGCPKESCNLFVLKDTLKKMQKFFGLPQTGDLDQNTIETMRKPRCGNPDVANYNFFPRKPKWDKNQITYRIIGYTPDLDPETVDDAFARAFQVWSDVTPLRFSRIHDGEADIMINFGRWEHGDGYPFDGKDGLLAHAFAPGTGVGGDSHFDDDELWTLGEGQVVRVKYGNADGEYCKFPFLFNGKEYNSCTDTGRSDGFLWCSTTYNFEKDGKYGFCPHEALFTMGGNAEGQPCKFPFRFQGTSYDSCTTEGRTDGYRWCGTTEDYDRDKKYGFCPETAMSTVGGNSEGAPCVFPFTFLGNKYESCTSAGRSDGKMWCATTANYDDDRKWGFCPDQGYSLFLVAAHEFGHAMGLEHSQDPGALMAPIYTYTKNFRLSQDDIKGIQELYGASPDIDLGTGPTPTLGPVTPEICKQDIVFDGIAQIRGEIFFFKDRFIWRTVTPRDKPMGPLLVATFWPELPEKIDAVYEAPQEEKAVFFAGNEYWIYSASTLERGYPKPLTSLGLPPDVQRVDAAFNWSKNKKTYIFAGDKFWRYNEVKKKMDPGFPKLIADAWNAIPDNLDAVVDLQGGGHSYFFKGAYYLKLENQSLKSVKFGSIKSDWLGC
# measurement_description: Inhibition of human recombinant MMP2 using Mca-Lys-Pro-Leu-Gly-Leu-Dpa-Ala-Arg-NH2 substrate by spectrophotometry
Exercise: for every item that follows, state its recorded Ki.
Numbers only, in nM.

Study these solved cases before continuing.
Which Ki value is on record for "CC(C)C[C@H]1C(=O)N[C@H](C(=O)N[C@@H](CCC(=O)O)C(=O)O)Cc2ccc(cc2)OCCC[C@@H]1C(=O)NO" ?
396

Which Ki value is on record for "CC(C)C[C@H](CC(=O)NO)C(=O)N[C@@H](Cc1ccccc1)C(=O)O" ?
164

Which Ki value is on record for "CC(C)C[C@H]1C(=O)N[C@H](C(=O)O)Cc2ccc(cc2)OCCC[C@@H]1C(=O)NO" ?
300

Next:
Which Ki value is on record for "CC(C)C[C@H](CC(=O)NO)C(=O)N[C@@H](Cc1ccccc1)C(=O)N[C@@H](CCC(=O)O)C(=O)NCCNC(=O)c1ccc(NN)nc1" ?
222

###

# target_or_test_system: Matrilysin (Homo sapiens, UniProt P09237)
# Sequence (P09237 whole entry): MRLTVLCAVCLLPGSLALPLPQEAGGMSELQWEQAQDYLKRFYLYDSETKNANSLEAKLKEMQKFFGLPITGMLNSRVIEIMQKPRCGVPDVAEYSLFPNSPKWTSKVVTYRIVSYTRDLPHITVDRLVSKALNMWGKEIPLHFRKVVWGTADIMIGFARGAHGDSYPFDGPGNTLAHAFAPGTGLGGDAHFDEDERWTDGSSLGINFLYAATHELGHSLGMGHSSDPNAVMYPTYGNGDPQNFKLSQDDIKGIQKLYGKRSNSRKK
# measurement_description: Inhibition of human recombinant MMP7 using Mca-Lys-Pro-Leu-Gly-Leu-Dpa-Ala-Arg-NH2 substrate by spectrophotometry
parameter: pKi
Numbers only, as −log10 of the molar value.

Study these solved cases before continuing.
Which pKi value is on record for "CC(C)C[C@H](CC(=O)NO)C(=O)N[C@@H](Cc1ccccc1)C(=O)O" ?
6.49

Which pKi value is on record for "CC(C)C[C@H]1C(=O)N[C@H](C(=O)O)Cc2ccc(cc2)OCCC[C@@H]1C(=O)NO" ?
7.41

Which pKi value is on record for "CC(C)C[C@H]1C(=O)N[C@H](C(=O)N[C@@H](CCC(=O)O)C(=O)O)Cc2ccc(cc2)OCCC[C@@H]1C(=O)NO" ?
7.84

Next item in the queue.
Which pKi value is on record for "CC(C)C[C@H](CC(=O)NO)C(=O)N[C@@H](Cc1ccccc1)C(=O)N[C@@H](CCC(=O)O)C(=O)NCCNC(=O)c1ccc(NN)nc1" ?
6.21

###

Exercise: for every item that follows, state its recorded Ki.
# target_or_test_system: Collagenase 3 (Homo sapiens, UniProt P45452)
# measurement_description: Inhibition of human recombinant MMP13 using Mca-Lys-Pro-Leu-Gly-Leu-Dpa-Ala-Arg-NH2 substrate by spectrophotometry

Study these solved cases before continuing.
Which Ki value is on record for "CC(C)C[C@H](CC(=O)NO)C(=O)N[C@@H](Cc1ccccc1)C(=O)N[C@@H](CCC(=O)O)C(=O)NCCNC(=O)c1ccc(NN)nc1" ?
78 nM

Which Ki value is on record for "CC(C)C[C@H]1C(=O)N[C@H](C(=O)O)Cc2ccc(cc2)OCCC[C@@H]1C(=O)NO" ?
31 nM

Which Ki value is on record for "CC(C)C[C@H](CC(=O)NO)C(=O)N[C@@H](Cc1ccccc1)C(=O)O" ?
81 nM

Give measured Ki for every item shown.
1. CC(C)C[C@H]1C(=O)N[C@H](C(=O)N[C@@H](CCC(=O)O)C(=O)O)Cc2ccc(cc2)OCCC[C@@H]1C(=O)NO
2. CC(C)C[C@H](CC(=O)NO)C(=O)N[C@@H](Cc1ccc(OCCNC(=O)c2ccc(NN)nc2)cc1)C(=O)O

["89 nM", "> 5000 nM"]

###

# target_or_test_system: Matrix metalloproteinase-9 (Homo sapiens, UniProt P14780)
# Sequence (P14780 whole entry): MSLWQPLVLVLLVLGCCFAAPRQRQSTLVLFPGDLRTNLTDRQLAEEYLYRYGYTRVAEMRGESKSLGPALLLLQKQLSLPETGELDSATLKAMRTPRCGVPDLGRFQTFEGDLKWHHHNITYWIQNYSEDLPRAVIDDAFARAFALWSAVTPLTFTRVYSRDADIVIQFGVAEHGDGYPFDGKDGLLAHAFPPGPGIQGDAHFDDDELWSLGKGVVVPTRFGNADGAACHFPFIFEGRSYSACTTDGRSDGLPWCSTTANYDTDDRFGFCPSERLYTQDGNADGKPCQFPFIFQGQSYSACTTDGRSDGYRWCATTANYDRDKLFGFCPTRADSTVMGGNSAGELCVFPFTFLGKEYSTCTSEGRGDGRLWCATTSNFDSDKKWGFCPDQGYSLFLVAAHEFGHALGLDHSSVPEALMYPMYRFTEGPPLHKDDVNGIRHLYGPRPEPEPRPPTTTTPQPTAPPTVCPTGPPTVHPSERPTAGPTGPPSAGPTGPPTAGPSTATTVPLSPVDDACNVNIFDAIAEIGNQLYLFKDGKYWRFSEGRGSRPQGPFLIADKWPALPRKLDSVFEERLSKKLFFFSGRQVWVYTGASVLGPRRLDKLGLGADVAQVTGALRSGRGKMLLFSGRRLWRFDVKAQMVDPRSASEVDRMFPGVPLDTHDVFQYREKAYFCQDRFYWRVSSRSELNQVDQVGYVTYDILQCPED
# measurement_description: Inhibition of human recombinant MMP9 using Mca-Lys-Pro-Leu-Gly-Leu-Dpa-Ala-Arg-NH2 substrate by spectrophotometry
parameter: Ki (nM)
Answers are plain numbers, in nM.

Study these solved cases before continuing.
Which Ki value is on record for "CC(C)C[C@H]1C(=O)N[C@H](C(=O)N[C@@H](CCC(=O)O)C(=O)O)Cc2ccc(cc2)OCCC[C@@H]1C(=O)NO" ?
2110

Which Ki value is on record for "CC(C)C[C@H](CC(=O)NO)C(=O)N[C@@H](Cc1ccc(OCCNC(=O)c2ccc(NN)nc2)cc1)C(=O)O" ?
155

Which Ki value is on record for "CC(C)C[C@H](CC(=O)NO)C(=O)N[C@@H](Cc1ccccc1)C(=O)O" ?
125

Which Ki value is on record for "CC(C)C[C@H](CC(=O)NO)C(=O)N[C@@H](Cc1ccccc1)C(=O)N[C@@H](CCC(=O)O)C(=O)NCCNC(=O)c1ccc(NN)nc1" ?
1300

Next:
Which Ki value is on record for "CC(C)C[C@H]1C(=O)N[C@H](C(=O)O)Cc2ccc(cc2)OCCC[C@@H]1C(=O)NO" ?
1100
